The origin of these recorded values is ChEMBL document CHEMBL1140829.

pKi: −log10 of the molar value.
In what follows, each item is paired with its pKi for Voltage-gated inwardly rectifying potassium channel KCNH2 (Homo sapiens).
observationType: pKi

>  <compound>
O=C(NC1CCc2cc(CCN3CCN(c4nsc5ccccc45)CC3)ccc21)c1cccnc1 (stereo not given)

>  <observedResult>
6.69

$$$$
>  <compound>
CCC(=O)NC1CCc2cc(CCN3CCN(c4nsc5ccccc45)CC3)ccc21 (stereo not given)

>  <observedResult>
6.74

$$$$
>  <compound>
O=C(NC1CCc2cc(CCN3CCN(c4nsc5ccccc45)CC3)ccc21)c1ccc(F)cc1 (stereo not given)

>  <observedResult>
6.87

$$$$
>  <compound>
CC(=O)NC1CCc2cc(CCN3CCN(c4nsc5ccccc45)CC3)ccc21 (stereo not given)

>  <observedResult>
5.66

$$$$
>  <compound>
O=C(NC1CCc2ccc(CCN3CCN(c4nsc5ccccc45)CC3)cc21)c1ccco1 (stereo not given)

>  <observedResult>
7.46

$$$$

* * *

- targetDesc: Alpha-1A adrenergic receptor (Rattus norvegicus)
- Sequence (P43140 whole entry): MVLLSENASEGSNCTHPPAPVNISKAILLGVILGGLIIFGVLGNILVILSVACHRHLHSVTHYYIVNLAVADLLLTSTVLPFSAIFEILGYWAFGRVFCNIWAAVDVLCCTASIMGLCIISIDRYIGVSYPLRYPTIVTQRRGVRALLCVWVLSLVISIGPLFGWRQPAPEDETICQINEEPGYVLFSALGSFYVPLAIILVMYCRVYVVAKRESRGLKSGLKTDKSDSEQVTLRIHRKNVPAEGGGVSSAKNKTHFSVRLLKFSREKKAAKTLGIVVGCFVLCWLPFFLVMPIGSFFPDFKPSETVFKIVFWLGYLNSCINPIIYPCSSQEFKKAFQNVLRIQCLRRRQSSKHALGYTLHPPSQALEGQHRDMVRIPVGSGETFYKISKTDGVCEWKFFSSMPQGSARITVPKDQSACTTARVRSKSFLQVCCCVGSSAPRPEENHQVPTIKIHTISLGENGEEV
observationType: Ki (nM)

>  <compound>
O=C(NC1CCc2ccc(CCN3CCN(c4nsc5ccccc45)CC3)cc21)c1ccco1 (centres undefined)

>  <targetDesc>
Alpha-1A adrenergic receptor (Rattus norvegicus)

>  <observationType>
Ki

>  <observedResult>
1.38

$$$$
>  <compound>
O=C1Cc2cc(CCN3CCN(c4nsc5ccccc45)CC3)c(Cl)cc2N1

>  <targetDesc>
Alpha-1A adrenergic receptor (Rattus norvegicus)

>  <observationType>
Ki

>  <observedResult>
0.5

$$$$
>  <compound>
O=C(Cc1ccccc1)NC1CCc2ccc(CCN3CCN(c4nsc5ccccc45)CC3)cc21 (centres undefined)

>  <targetDesc>
Alpha-1A adrenergic receptor (Rattus norvegicus)

>  <observationType>
Ki

>  <observedResult>
5.27

$$$$
>  <compound>
CCC(=O)NC1CCc2ccc(CCN3CCN(c4nsc5ccccc45)CC3)cc21 (centres undefined)

>  <targetDesc>
Alpha-1A adrenergic receptor (Rattus norvegicus)

>  <observationType>
Ki

>  <observedResult>
3.03

$$$$
>  <compound>
O=C(NC1CCc2ccc(CCN3CCN(c4nsc5ccccc45)CC3)cc21)c1ccc(F)cc1 (centres undefined)

>  <targetDesc>
Alpha-1A adrenergic receptor (Rattus norvegicus)

>  <observationType>
Ki

>  <observedResult>
10.3

$$$$
>  <compound>
O=C(CCc1ccccc1)NC1CCc2ccc(CCN3CCN(c4nsc5ccccc45)CC3)cc21 (centres undefined)

>  <targetDesc>
Alpha-1A adrenergic receptor (Rattus norvegicus)

>  <observationType>
Ki

>  <observedResult>
10.3

$$$$
>  <compound>
O=C(NC1CCc2ccc(CCN3CCN(c4nsc5ccccc45)CC3)cc21)c1ccccc1 (centres undefined)

>  <targetDesc>
Alpha-1A adrenergic receptor (Rattus norvegicus)

>  <observationType>
Ki

>  <observedResult>
10.9

$$$$
>  <compound>
CCCC(=O)NC1CCc2cc(CCN3CCN(c4nsc5ccccc45)CC3)ccc21 (centres undefined)

>  <targetDesc>
Alpha-1A adrenergic receptor (Rattus norvegicus)

>  <observationType>
Ki

>  <observedResult>
0.9

$$$$
>  <compound>
O=C(NC1CCc2ccc(CCN3CCN(c4nsc5ccccc45)CC3)cc21)C1CC1 (centres undefined)

>  <targetDesc>
Alpha-1A adrenergic receptor (Rattus norvegicus)

>  <observationType>
Ki

>  <observedResult>
2.22

$$$$

* * *

pKi: −log10 of the molar value.
Please consider the recorded pKi for Voltage-gated inwardly rectifying potassium channel KCNH2 (Homo sapiens) in what follows.
observationType: pKi

>  <compound>
CCC(=O)NC1CCc2ccc(CCN3CCN(c4nsc5ccccc45)CC3)cc21 (stereo not given)

>  <targetDesc>
Voltage-gated inwardly rectifying potassium channel KCNH2 (Homo sapiens)
Sequence (Q12809 whole entry): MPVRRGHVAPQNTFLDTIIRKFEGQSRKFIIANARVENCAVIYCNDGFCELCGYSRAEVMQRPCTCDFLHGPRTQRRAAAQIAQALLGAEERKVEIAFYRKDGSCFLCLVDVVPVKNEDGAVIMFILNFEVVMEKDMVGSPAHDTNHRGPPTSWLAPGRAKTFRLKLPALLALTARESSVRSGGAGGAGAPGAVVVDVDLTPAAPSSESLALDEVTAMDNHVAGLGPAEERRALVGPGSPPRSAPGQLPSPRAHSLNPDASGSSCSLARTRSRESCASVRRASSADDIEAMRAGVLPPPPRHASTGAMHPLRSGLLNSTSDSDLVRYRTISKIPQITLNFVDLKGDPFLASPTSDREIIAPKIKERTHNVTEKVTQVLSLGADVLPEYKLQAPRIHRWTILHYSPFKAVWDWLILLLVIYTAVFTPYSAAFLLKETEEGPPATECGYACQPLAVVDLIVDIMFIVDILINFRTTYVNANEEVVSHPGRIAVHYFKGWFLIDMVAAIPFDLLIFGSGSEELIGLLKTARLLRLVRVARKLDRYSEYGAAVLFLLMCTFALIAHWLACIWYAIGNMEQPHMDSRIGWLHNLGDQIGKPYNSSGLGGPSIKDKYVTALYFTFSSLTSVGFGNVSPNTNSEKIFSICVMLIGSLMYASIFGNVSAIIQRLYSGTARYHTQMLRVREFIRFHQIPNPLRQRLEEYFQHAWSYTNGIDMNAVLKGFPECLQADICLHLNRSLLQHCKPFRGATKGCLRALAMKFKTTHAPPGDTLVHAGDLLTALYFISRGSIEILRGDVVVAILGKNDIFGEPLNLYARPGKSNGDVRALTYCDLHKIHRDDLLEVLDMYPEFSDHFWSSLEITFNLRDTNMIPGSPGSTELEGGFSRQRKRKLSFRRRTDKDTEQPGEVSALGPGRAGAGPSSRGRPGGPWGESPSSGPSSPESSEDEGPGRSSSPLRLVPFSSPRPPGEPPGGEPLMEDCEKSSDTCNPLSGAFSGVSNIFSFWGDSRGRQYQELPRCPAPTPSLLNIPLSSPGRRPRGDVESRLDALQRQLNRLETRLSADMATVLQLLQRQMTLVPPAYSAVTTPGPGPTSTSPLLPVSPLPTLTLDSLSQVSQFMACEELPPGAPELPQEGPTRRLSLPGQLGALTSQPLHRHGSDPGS

>  <observationType>
pKi

>  <observedResult>
6.79

$$$$
>  <compound>
CC(C)C(=O)NC1CCc2ccc(CCN3CCN(c4nsc5ccccc45)CC3)cc21 (stereo not given)

>  <targetDesc>
Voltage-gated inwardly rectifying potassium channel KCNH2 (Homo sapiens)

>  <observationType>
pKi

>  <observedResult>
6.56

$$$$
>  <compound>
NC1CCc2ccc(CCN3CCN(c4nsc5ccccc45)CC3)cc21 (stereo not given)

>  <targetDesc>
Voltage-gated inwardly rectifying potassium channel KCNH2 (Homo sapiens)

>  <observationType>
pKi

>  <observedResult>
6.21

$$$$
>  <compound>
O=C(NC1CCc2ccc(CCN3CCN(c4nsc5ccccc45)CC3)cc21)c1ccno1 (stereo not given)

>  <targetDesc>
Voltage-gated inwardly rectifying potassium channel KCNH2 (Homo sapiens)

>  <observationType>
pKi

>  <observedResult>
6.82

$$$$
>  <compound>
O=C(NC1CCc2ccc(CCN3CCN(c4nsc5ccccc45)CC3)cc21)C(F)(F)F (stereo not given)

>  <targetDesc>
Voltage-gated inwardly rectifying potassium channel KCNH2 (Homo sapiens)

>  <observationType>
pKi

>  <observedResult>
7.00

$$$$
